Target: T1, human TNFR2 on the surface of CHO-TNFR2 cells (human, UniProt P20333 23-461)
T1 construct: whole, on cells
T1 sequence (looked up): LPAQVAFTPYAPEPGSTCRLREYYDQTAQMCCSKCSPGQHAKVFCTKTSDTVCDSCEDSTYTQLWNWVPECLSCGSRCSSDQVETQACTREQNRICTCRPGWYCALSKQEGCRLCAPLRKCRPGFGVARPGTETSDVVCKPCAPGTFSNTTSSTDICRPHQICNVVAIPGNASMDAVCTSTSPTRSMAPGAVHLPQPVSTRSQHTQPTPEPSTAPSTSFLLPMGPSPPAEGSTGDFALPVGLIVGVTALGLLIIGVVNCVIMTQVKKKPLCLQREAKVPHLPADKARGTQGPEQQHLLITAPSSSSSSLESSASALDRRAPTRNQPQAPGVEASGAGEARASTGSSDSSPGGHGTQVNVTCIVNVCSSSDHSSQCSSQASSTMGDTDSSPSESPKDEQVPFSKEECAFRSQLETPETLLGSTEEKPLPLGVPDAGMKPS
Test: flow cytometry on CHO-TNFR2 cells
binders and their reported EC50

Example results:
>>> result("224-Hu1 (antibody, V domains shown, Humanized form of #224; also called VH8 + VL6) VH: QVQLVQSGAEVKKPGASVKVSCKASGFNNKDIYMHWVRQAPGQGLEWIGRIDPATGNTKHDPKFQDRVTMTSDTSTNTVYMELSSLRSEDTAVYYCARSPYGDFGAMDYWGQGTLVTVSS VL: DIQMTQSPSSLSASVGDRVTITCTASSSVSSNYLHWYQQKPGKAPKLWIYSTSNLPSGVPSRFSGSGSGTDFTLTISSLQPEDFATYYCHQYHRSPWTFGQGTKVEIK")
"0.04 ng/mL"
>>> result("224-WT (antibody, V domains shown, Human-murine chimeric wild-type molecule; also called human-murine chimeric antibody WT of #224) VH: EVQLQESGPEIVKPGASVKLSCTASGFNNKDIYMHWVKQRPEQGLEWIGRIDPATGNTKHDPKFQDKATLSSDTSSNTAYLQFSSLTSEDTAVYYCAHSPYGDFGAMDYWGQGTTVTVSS VL: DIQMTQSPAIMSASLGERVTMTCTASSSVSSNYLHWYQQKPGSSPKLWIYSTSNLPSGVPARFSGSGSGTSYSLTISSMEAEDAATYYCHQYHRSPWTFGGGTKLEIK")
"0.04 ng/mL"
>>> result("219-WT (antibody, V domains shown, Human-murine chimeric wild-type molecule) VH: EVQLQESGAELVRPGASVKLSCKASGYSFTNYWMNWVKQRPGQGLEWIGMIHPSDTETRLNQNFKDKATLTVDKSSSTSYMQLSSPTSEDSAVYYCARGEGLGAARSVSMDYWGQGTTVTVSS VL: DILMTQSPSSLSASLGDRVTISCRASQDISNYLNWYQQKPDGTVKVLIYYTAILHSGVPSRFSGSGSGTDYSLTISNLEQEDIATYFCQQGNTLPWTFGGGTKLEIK")
"0.026 ng/mL"
>>> result("001-Hu5 (antibody, V domains shown, Humanized form of #001; also called VH1 + VL4) VH: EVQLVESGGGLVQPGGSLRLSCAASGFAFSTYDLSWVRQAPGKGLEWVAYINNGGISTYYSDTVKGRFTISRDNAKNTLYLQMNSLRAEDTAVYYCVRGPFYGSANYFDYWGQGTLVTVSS VL: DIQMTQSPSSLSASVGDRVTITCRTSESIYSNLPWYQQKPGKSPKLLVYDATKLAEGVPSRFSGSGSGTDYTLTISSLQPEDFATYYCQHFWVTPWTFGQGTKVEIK")
"0.029 ng/mL"

// field: EC50; key: 001-Hu4 (antibody, V domains shown, Humanized form of #001; also called VH2 + VL4) VH: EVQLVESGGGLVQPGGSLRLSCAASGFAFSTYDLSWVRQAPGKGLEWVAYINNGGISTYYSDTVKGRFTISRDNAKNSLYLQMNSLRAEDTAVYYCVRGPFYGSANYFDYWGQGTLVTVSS VL: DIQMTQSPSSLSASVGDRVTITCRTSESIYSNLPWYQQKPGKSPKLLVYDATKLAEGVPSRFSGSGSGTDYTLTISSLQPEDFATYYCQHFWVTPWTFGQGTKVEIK ; value = 0.027 ng/mL
